# assayed_system: Voltage-gated inwardly rectifying potassium channel KCNH2 (Homo sapiens)
# method: Human Ether-a-go-go-Related Gene (hERG) channel small molecule antagonists: fluorescence cell-based qHTS assay (AID 1671200);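 also: hERG-expressing U2OS cells given a thallium stimulus after FluxOR II dye loading; nearly all actives have a fitted effect of over 50% in size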
# condition_context: hERG-U2OS cells, FluxOR thallium flux fluorescence; series mostly up to 76.8 µM
Records with an inconclusive call do not appear. Calls of active or inactive are those of the source. Calls follow the shape of the dose curve; as a rule, active = well fitted inhibition curve with a large enough effect in the repeat runs; inconclusive = weak or mixed curves; inactive = flat fitted curve, though single readings scatter.

{"molecule": "CC1=CC(=O)CCC1", "assayed_system": "Voltage-gated inwardly rectifying potassium channel KCNH2 (Homo sapiens)", "activity change, negative = inhibition": "inactive"}
{"molecule": "CCCCCCCCCCCCCCC", "assayed_system": "Voltage-gated inwardly rectifying potassium channel KCNH2 (Homo sapiens)", "activity change, negative = inhibition": "inactive"}
{"molecule": "CC(O)CN(CCCN(C)C)CCCN(C)C (stereo not drawn)", "assayed_system": "Voltage-gated inwardly rectifying potassium channel KCNH2 (Homo sapiens)", "activity change, negative = inhibition": "inactive"}

Value source: PubChem BioAssay (Tox21)
